# System under test: AR-v7 (Homo sapiens)
# Sequence (P10275 1-644 isoform P10275-3): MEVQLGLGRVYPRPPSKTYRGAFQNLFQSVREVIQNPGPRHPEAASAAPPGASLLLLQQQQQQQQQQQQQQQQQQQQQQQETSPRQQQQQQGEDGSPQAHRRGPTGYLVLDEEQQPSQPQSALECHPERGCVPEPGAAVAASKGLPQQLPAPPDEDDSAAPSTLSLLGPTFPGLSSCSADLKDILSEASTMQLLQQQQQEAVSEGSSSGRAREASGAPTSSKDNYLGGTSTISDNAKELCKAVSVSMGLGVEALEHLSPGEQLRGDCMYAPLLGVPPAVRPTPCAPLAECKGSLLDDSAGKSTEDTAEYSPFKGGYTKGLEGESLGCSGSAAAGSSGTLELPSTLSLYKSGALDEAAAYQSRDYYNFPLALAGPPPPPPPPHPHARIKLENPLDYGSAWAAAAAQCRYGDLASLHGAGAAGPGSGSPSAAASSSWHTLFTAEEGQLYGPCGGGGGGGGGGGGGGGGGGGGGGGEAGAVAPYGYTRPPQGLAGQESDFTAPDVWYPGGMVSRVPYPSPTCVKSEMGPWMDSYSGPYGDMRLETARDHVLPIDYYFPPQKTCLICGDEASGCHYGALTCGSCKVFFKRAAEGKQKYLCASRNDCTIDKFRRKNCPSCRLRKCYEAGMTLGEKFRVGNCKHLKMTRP
# Procedure text: dual luciferase reporter assay, stable LNCaP cell line with AR-v7 under DOX control and MMTV-driven firefly luciferase
# Condition notes: Reporter Assay at 24 hours; dose response starting at 50 μM, serially diluted 1:1; LNCaP cells
Observed property: IC50 (µM)

Answered cases to consult:
>>> measurement("CCNc1ncc(-c2cc(-c3cc(C)sc3C)nc(N)c2C#N)cn1 [KI-ARv-05]")
50
>>> measurement("O=C(NCC[C@@H]1C[C@@H]2C=C[C@H]1C2)c1cccc(OC2CCN(C(=O)C3CC3)CC2)c1 (relative stereo) [KI-ARv-01]")
5.43
>>> measurement("Cc1cc(N2CCC(NCc3cccc(N4CCCC4)c3)CC2)nc(N)n1 [KI-ARv-06]")
14.8
>>> measurement("CS(=O)(=O)N1CCC(Oc2cccc(C(=O)NCC[C@@H]3C[C@@H]4C=C[C@H]3C4)c2)CC1 (relative stereo) [KI-ARv-08]")
24.7
>>> measurement("Fc1ccc(N2CCCN(CC3[C@H]4CNC[C@@H]34)CC2)cc1 (relative stereo) [KI-ARv-04]")
11.3

I: Cc1c(C(=O)N(C)Cc2cccc3ncccc23)sc2ncnc(NCC3C[C@@H]4C=C[C@H]3C4)c12 (some centres unmarked) [KI-ARv-02]
II: Cc1c(C(=O)NCc2ccncc2)sc2ncnc(NC[C@H]3C[C@@H]4C=C[C@H]3C4)c12 (relative stereo) [RO3682]
Smaller IC50 value, I vs II ? Response format: the label of the selected entry. I
(I: 6.86 µM, II: 12.5 µM)
